Each recorded value in this set is attributed to ChEMBL document CHEMBL1138986.

# experimental.system: UniProtKB Q7ZJM1
# Sequence (Q7ZJM1 whole entry): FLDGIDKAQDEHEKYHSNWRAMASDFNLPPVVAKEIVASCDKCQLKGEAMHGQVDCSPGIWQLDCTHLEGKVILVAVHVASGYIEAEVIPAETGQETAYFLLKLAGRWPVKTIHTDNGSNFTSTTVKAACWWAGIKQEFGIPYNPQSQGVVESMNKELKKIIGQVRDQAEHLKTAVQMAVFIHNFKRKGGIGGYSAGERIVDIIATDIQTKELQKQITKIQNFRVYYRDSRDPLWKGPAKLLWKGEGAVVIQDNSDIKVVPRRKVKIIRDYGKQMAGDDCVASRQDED
# assay.procedure: Inhibition of HIV1 integrase strand transfer activity in presence of MnCl2
readout.name: pIC50
Recall that pIC50 is obtained by taking minus log10 of the concentration measured in molar.

As a guide, the following entries are already answered.
[[record]]
compound_structure_string = "O=C(O)C(=O)/C=C(\\O)c1ccc2ncc(/C(O)=C/C(=O)C(=O)O)c(O)c2c1"
readout_number = 6.37

[[record]]
compound_structure_string = "CCOC(=O)C(=O)/C=C(\\O)c1ccc2c(c1)c(=O)c(/C(O)=C/C(=O)C(=O)OCC)cn2Cc1ccc(F)cc1"
readout_number = 6.60


Okay, next one:
Task: GET pIC50 where system = UniProtKB Q7ZJM1 and item = CCOC(=O)C(=O)/C=C(\O)c1ccc2ncc(/C(O)=C/C(=O)C(=O)OCC)c(O)c2c1
Output: 4.10

----------
# Tested on: U-937
# assay.procedure: Cytotoxicity against U937 cell line
# Format: functional
# assay.setup: Homo sapiens
readout.name: CC50

As a guide, the following entries are already answered.
[[record]]
compound_structure_string = "O=C(O)C(=O)/C=C(\\O)c1ccc2c(c1)c(=O)c(/C(O)=C/C(=O)C(=O)O)cn2Cc1ccc(F)cc1"
readout_name = "CC50"
result = "> 200 µM"

[[record]]
compound_structure_string = "CCOC(=O)C(=O)/C=C(\\O)c1ccc2ncc(/C(O)=C/C(=O)C(=O)OCC)c(O)c2c1"
readout_name = "CC50"
result = "> 200 µM"

[[record]]
compound_structure_string = "O=C(O)C(=O)/C=C(\\O)c1ccc2ncc(/C(O)=C/C(=O)C(=O)O)c(O)c2c1"
readout_name = "CC50"
result = "> 200 µM"


Okay, next one:
Task: Return reported CC50. Input molecule: CCOC(=O)C(=O)/C=C(\O)c1ccc2c(c1)c(=O)c(/C(O)=C/C(=O)C(=O)OCC)cn2Cc1ccc(F)cc1
Output: 191 µM

----------
# experimental.system: UniProtKB Q7ZJM1
# assay.procedure: Inhibition of HIV1 integrase strand transfer activity in presence of MgCl2 by plate-based electrochemiluminescent assay
readout.name: pIC50
Recall that pIC50 is obtained by taking minus log10 of the concentration measured in molar.

[[record]]
compound_structure_string = "CCOC(=O)C(=O)/C=C(\\O)c1ccc2ncc(/C(O)=C/C(=O)C(=O)OCC)c(O)c2c1"
readout_name = "pIC50"
readout_number = 4.11

[[record]]
compound_structure_string = "CCOC(=O)C(=O)/C=C(\\O)c1ccc2c(c1)c(=O)c(/C(O)=C/C(=O)C(=O)OCC)cn2Cc1ccc(F)cc1"
readout_name = "pIC50"
readout_number = 6.42


Okay, next one:
Task: GET pIC50 where system = UniProtKB Q7ZJM1 and item = O=C(O)C(=O)/C=C(\O)c1ccc2ncc(/C(O)=C/C(=O)C(=O)O)c(O)c2c1
Output: 5.04
